Reported fubrain (% free) values for a set of compounds
- procedure text: Fraction unbound in rat plasma and brain homogenate by equilibrium dialysis
- Type: in vitro ADME, male Sprague-Dawley rat
- protocol conditions: rat brain homogenate; 1 μM; equilibrium dialysis 5 h at 37° C.
Give a bare numeral; the unit % free is implied.

Known results for compounds:
Cc1c2c(nn1-c1cccnc1OC1CC1)OCCCn1nc(Cl)c3cnc(nc31)N2 [Example 16] : 3.5
COc1nccc(C)c1-n1nc2c(c1C)Nc1ncc3c(Cl)nn(c3n1)CCCO2 [Example 7] : 7.5
Cc1ccc(-n2nc3c(c2C)Nc2ncc4c(Cl)nn(c4n2)CCCO3)c(C)n1 [Example 9] : 7.4
COc1nc(C)ncc1-n1nc2c(c1C)Nc1ncc3c(Cl)nn(c3n1)CCCO2 [Example 22] : 6.8
COc1ncc(F)cc1-n1nc2c(c1C)Nc1ncc3c(Cl)nn(c3n1)CCCO2 [Example 6] : 3.7
COc1ncc(C)cc1-n1nc2c(c1C)Nc1ncc3c(Cl)nn(c3n1)CCCO2 [Example 12] : 3.0
COc1ncccc1-n1nc2c(c1C)Nc1ncc3c(Cl)nn(c3n1)CCCO2 [Example 1] : 4.7
Cc1ncc(F)cc1-n1nc2c(c1C)Nc1ncc3c(Cl)nn(c3n1)CCCO2 [Example 10] : 9.3

input: Entry CCc1c2c(nn1-c1cccnc1C)OCCCn1nc(Cl)c3cnc(nc31)N2 [Example 8] has what fubrain (% free)?
output: 7.5

input: Entry Cc1ncccc1-n1nc2c(c1C)Nc1ncc3c(Cl)nn(c3n1)CCCO2 [Example 3] has what fubrain (% free)?
output: 10.4

input: Entry Cc1c2c(nn1-c1cccnc1OCF)OCCCn1nc(Cl)c3cnc(nc31)N2 [Example 18] has what fubrain (% free)?
output: 4.7

input: Entry CCc1c2c(nn1-c1cccnc1OC)OCCCn1nc(Cl)c3cnc(nc31)N2 [Example 5] has what fubrain (% free)?
output: 5.2

input: Entry Cc1cnc(C)c(-n2nc3c(c2C)Nc2ncc4c(Cl)nn(c4n2)CCCO3)c1 [Example 11] has what fubrain (% free)?
output: 5.3

input: Entry Cc1c2c(nn1-c1cccnc1C(C)(F)F)OCCCn1nc(Cl)c3cnc(nc31)N2 [Example 14] has what fubrain (% free)?
output: 5.8

input: Entry CCOc1ncccc1-n1nc2c(c1C)Nc1ncc3c(Cl)nn(c3n1)CCCO2 [Example 2] has what fubrain (% free)?
output: 2.7

input: Entry Cc1nc(C)c(-n2nc3c(c2C)Nc2ncc4c(Cl)nn(c4n2)CCCO3)cc1F [Example 15] has what fubrain (% free)?
output: 5.0

input: Entry Cc1c2c(nn1-c1cccnc1OC(F)F)OCCCn1nc(Cl)c3cnc(nc31)N2 [Example 19] has what fubrain (% free)?
output: 2.7

input: Entry COc1nc(C)ccc1-n1nc2c(c1C)Nc1ncc3c(Cl)nn(c3n1)CCCO2 [Example 13] has what fubrain (% free)?
output: 1.9

====

- procedure text: Hepatic microsomal intrinsic clearance assay
- Type: in vitro ADME
- protocol conditions: pooled liver microsomes, pH 7.4; liver microsomes 0.5 mg/mL; 1 μM; NADPH; 1 hour at 37° C.; LLOQ 0.36 L/h/kg
measure name: CLint scaled at 1 μM (mL/min/kg)
Give a bare numeral; the unit mL/min/kg is implied.

Known results for molecules:
Cc1c2c(nn1-c1cccnc1OC(F)F)OCCCn1nc(Cl)c3cnc(nc31)N2 [Example 19] : 33.8
COc1ncccc1-n1nc2c(c1C)Nc1ncc3c(Cl)nn(c3n1)CCCO2 [Example 1] : 9.67
Cc1c2c(nn1-c1cccnc1C(C)(F)F)OCCCn1nc(Cl)c3cnc(nc31)N2 [Example 14] : 17.2

Now consider a different molecule.
input: Entry COc1ncc(F)cc1-n1nc2c(c1C)Nc1ncc3c(Cl)nn(c3n1)CCCO2 [Example 6] has what CLint scaled at 1 μM?
output: 21
